test: Toxicity in NOD/SCID mouse xenografted with human RS4-11 cells assessed as maximum tolerated dose at IV administration for 5 consecutive days; settings: in vivo
Measured Endpoint: MTD at 5 days (mg/kg)
Kindly answer with a numeric value in mg/kg, unit omitted.

// recorded MTD at 5 days for C[C@@H]1CCC2[C@@H](C)[C@@H](OCCN(CCO[C@H]3O[C@@H]4O[C@@]5(C)CCC6[C@H](C)CCC([C@H]3C)[C@]64OO5)C(=O)CCCCCCCNc3cccc4c3C(=O)N(C3CCC(=O)NC3=O)C4=O)O[C@@H]3O[C@@]4(C)CCC1[C@@]23OO4 (stereo partly specified) : 25

* * *

system: RPMI-8226; test: Antiproliferative activity against human RPMI-8226 cells assessed as cell growth inhibition incubated for 48 hrs by CCK8 colorimetric assay; type: functional, cell-based; settings: RPMI-8226, 48 h
Measured Endpoint: pIC50
Units for pIC50: none; it is -log10 of a concentration expressed in mol/L.

Bench note, RPMI-8226: C[C@@H]1CCC2[C@@H](C)[C@@H](OCCN(CCO[C@H]3O[C@@H]4O[C@@]5(C)CCC6[C@H](C)CCC([C@H]3C)[C@]64OO5)C(=O)CCCCCCCNc3cccc4c3C(=O)N(C3CCC(=O)NC3=O)C4=O)O[C@@H]3O[C@@]4(C)CCC1[C@@]23OO4 (some centres not stated) , pIC50 reads 6.63

* * *

test system: RPMI-8226; experiment: Antiproliferative activity against human RPMI-8226 cells assessed as cell growth inhibition incubated for 48 hrs by CCK8 colorimetric assay; type: functional, cell-based; settings: RPMI-8226, 48 h
pIC50 for assorted compounds
Units for pIC50: none; it is -log10 of a concentration expressed in mol/L.

Would you please look over these solved cases?
Compound	Measured Endpoint	Value Measured
C[C@@H]1CCC2[C@@H](C)[C@@H](OCCN(CCO[C@H]3O[C@@H]4O[C@@]5(C)CCC6[C@H](C)CCC([C@H]3C)[C@]64OO5)C(=O)CCCCCNc3cccc4c3C(=O)N(C3CCC(=O)NC3=O)C4=O)O[C@@H]3O[C@@]4(C)CCC1[C@@]23OO4 (some centres undefined)	pIC50	6.83
C[C@@H]1CCC2[C@@H](C)[C@@H](OCCN(CCO[C@H]3O[C@@H]4O[C@@]5(C)CCC6[C@H](C)CCC([C@H]3C)[C@]64OO5)C(=O)CCCCCCCCNc3cccc4c3C(=O)N(C3CCC(=O)NC3=O)C4=O)O[C@@H]3O[C@@]4(C)CCC1[C@@]23OO4 (some centres undefined)	pIC50	6.49

Attention now turns to another entry.
// recorded pIC50 for C[C@@H]1CCC2[C@@H](C)[C@@H](OCCN(CCO[C@H]3O[C@@H]4O[C@@]5(C)CCC6[C@H](C)CCC([C@H]3C)[C@]64OO5)C(=O)CCCCCCNc3cccc4c3C(=O)N(C3CCC(=O)NC3=O)C4=O)O[C@@H]3O[C@@]4(C)CCC1[C@@]23OO4 (some centres undefined) : 6.98

* * *

system: U-266; test: Antiproliferative activity against human U266B1 cells assessed as cell growth inhibition incubated for 48 hrs by CCK8 colorimetric assay; format: functional, cell-based; settings: U-266, 48 h
Measured Endpoint: IC50 (nM)
Kindly answer with a numeric value in nM, unit omitted.

Compound	Value Measured
C[C@@H]1CCC2[C@@H](C)[C@@H](OCCN(CCO[C@H]3O[C@@H]4O[C@@]5(C)CCC6[C@H](C)CCC([C@H]3C)[C@]64OO5)C(=O)CCCCCCCCNc3cccc4c3C(=O)N(C3CCC(=O)NC3=O)C4=O)O[C@@H]3O[C@@]4(C)CCC1[C@@]23OO4 (stereo partly specified)	407
C[C@@H]1CCC2[C@@H](C)[C@@H](OCCN(CCO[C@H]3O[C@@H]4O[C@@]5(C)CCC6[C@H](C)CCC([C@H]3C)[C@]64OO5)C(=O)CCCCCNc3cccc4c3C(=O)N(C3CCC(=O)NC3=O)C4=O)O[C@@H]3O[C@@]4(C)CCC1[C@@]23OO4 (stereo partly specified)	543
C[C@@H]1CCC2[C@@H](C)[C@@H](OCCN(CCO[C@H]3O[C@@H]4O[C@@]5(C)CCC6[C@H](C)CCC([C@H]3C)[C@]64OO5)C(=O)CCCCCCCNc3cccc4c3C(=O)N(C3CCC(=O)NC3=O)C4=O)O[C@@H]3O[C@@]4(C)CCC1[C@@]23OO4 (stereo partly specified)	343

// recorded IC50 for C[C@@H]1CCC2[C@@H](C)[C@@H](OCCN(CCO[C@H]3O[C@@H]4O[C@@]5(C)CCC6[C@H](C)CCC([C@H]3C)[C@]64OO5)C(=O)CCCCCCNc3cccc4c3C(=O)N(C3CCC(=O)NC3=O)C4=O)O[C@@H]3O[C@@]4(C)CCC1[C@@]23OO4 (stereo partly specified) : 265

* * *

assay: Oral bioavailability in Sprague-Dawley rat at 50 mg/kg measured upto 24 hrs by LC-MS/MS analysis; type: ADME, organism-based; conditions: in vivo
Measured Endpoint: bioavailability

// recorded bioavailability for C[C@@H]1CCC2[C@@H](C)[C@@H](OCCN(CCO[C@H]3O[C@@H]4O[C@@]5(C)CCC6[C@H](C)CCC([C@H]3C)[C@]64OO5)C(=O)CCCCCCCNc3cccc4c3C(=O)N(C3CCC(=O)NC3=O)C4=O)O[C@@H]3O[C@@]4(C)CCC1[C@@]23OO4 (stereo partly specified) : 24%
